Experimental System: Voltage-dependent T-type calcium channel subunit alpha-1H (Homo sapiens)
Assay Details: Cav3.2 calcium influx blockers – cell-based, Fluo-4 calcium fluorescence, FDSS, MLSMR library, primary screen (AID 449739)
Assay Context: Cav3.2-expressing cells, at 10 µM, active compounds read low
In all, about 100,000 compounds went through this assay and about 4,200 (4.2%) were called active. The entries come from a sample that favours actives as a whole.
Property Name: B-score
One number for each entry.

Known results for compounds:
COc1cccc(N2CC(C(=O)Nc3c(C)cccc3C)CC2=O)c1 (configuration not stated) : 0.386
CC1CCN(CC(=O)c2c[nH]c3ccccc23)CC1 : -0.109

Would you be so kind as to report B-score for each listed record?
1. CCCC(=O)NC(C)C(c1cccs1)N1CCN(c2ccccc2)CC1 (configuration not stated)
2. O=C(O)C1CC=C(Cl)CC1C(=O)NCc1ccccc1 (configuration not stated)
3. COC(=O)[C@H](Cc1ccccc1)NC(=O)[C@@H]1C[C@H]1[C@@H](NC(=O)OCc1ccccc1)c1ccccc1
4. COCCOCCn1cnc2ccccc21
5. Cc1cc([N+](=O)[O-])ccc1NCc1cccc([N+](=O)[O-])c1
6. N#Cc1ccc(Oc2cc(C(F)(F)F)nc(-c3ccccn3)n2)cc1

(A)
[-0.0337, 0.671, 0.0644, 0.734, 0.0686, -0.0658]

====

Assignment: determine reported B-score for the given molecules.
Experimental System: Voltage-dependent T-type calcium channel subunit alpha-1H (Homo sapiens) (UniProt O95180)
Sequence (O95180 whole entry, looked up): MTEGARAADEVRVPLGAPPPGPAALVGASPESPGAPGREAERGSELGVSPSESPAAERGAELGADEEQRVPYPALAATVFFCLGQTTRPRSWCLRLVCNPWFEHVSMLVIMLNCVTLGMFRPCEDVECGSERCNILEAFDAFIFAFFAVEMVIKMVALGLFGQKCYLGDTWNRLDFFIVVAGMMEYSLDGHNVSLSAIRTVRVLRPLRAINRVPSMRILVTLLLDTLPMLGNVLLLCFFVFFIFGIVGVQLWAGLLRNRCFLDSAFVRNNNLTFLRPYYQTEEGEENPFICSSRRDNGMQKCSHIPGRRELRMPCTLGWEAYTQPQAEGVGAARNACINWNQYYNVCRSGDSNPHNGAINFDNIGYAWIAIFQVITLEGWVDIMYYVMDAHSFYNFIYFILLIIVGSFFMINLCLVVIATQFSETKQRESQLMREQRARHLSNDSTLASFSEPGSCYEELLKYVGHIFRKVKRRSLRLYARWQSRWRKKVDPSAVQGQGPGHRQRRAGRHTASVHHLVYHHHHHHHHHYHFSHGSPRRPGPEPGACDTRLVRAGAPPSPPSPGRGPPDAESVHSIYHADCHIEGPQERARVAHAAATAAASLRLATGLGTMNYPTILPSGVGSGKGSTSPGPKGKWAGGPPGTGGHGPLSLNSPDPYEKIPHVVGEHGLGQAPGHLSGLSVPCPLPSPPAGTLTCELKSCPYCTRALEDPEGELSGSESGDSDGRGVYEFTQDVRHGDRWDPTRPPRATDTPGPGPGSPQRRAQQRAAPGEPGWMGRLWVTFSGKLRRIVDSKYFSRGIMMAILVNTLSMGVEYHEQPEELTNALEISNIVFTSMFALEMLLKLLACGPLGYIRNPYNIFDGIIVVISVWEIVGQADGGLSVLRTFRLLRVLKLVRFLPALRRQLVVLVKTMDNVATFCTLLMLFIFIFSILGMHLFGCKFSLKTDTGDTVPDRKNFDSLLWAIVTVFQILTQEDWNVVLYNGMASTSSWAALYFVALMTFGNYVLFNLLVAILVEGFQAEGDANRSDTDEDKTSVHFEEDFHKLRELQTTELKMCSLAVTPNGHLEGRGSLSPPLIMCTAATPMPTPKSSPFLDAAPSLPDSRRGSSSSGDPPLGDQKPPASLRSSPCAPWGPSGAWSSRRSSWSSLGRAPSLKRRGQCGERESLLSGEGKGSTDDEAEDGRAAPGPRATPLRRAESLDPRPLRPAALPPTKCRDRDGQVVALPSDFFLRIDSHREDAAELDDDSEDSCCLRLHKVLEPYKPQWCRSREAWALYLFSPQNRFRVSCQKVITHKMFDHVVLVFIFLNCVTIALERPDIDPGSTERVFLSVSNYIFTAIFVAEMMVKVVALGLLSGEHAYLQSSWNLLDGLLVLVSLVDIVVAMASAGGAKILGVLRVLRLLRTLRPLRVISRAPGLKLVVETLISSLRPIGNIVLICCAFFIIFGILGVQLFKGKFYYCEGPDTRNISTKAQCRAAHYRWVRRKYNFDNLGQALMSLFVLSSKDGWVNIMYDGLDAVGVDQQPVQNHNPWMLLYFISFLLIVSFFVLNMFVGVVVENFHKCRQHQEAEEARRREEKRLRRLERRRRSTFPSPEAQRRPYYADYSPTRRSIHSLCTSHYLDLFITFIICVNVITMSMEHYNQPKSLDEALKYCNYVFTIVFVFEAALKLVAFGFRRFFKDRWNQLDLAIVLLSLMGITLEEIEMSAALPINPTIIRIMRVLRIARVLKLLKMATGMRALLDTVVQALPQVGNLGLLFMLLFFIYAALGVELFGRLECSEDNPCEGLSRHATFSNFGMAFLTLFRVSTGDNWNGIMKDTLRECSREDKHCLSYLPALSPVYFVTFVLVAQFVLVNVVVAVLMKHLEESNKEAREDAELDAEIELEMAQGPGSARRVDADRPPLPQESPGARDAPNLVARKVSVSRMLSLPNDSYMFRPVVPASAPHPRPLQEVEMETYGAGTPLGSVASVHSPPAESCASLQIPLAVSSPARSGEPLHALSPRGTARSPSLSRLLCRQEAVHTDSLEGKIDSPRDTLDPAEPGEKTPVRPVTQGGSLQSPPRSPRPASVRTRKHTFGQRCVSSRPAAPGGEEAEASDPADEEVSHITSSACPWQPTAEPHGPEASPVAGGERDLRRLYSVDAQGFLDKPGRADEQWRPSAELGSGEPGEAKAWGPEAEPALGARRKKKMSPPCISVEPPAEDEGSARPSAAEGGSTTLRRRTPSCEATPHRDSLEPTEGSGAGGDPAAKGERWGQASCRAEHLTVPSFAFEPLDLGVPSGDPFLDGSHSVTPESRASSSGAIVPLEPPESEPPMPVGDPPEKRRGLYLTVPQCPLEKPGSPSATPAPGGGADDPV
Assay Details: Cav3.2 calcium influx blockers – cell-based, Fluo-4 calcium fluorescence, FDSS, MLSMR library, primary screen (AID 449739)
Assay Context: Cav3.2-expressing cells, at 10 µM, active compounds read low
The whole screen tested about 100,000 compounds, of which about 4,200 (4.2%) were called active. Shown is part of a subset that was picked to be rich in actives.

Known results for molecules:
CCOC(=O)C1Nc2ccc(C(F)(F)F)cc2C2C=CCC12 (stereo not given) : -0.137 (inactive)
COc1cc(C(=O)N2CCN(C/C=C/c3ccccc3)CC2)cc(OC)c1C : -0.741 (inactive)
O=C1CCCC2=C1C(c1ccccc1)n1c(s/c(=C/c3cccc(F)c3)c1=O)=N2 (stereo not given) : 0.975 (inactive)
O=C(c1ccc(Cl)cc1)c1cnc(Nc2ccccc2)s1 : 0.657 (inactive)

Would you be so kind as to report B-score for each listed record?
1. COc1ccc(C2/C=C\CN(S(=O)(=O)c3cccs3)CC(=O)N2Cc2ccc(F)cc2)cc1 (stereo not given)
2. Cc1ccc(C(=O)NC2CCN(C(=O)N3CCOCC3)CC2)cc1
3. O=C(CSc1nnc(-c2ccccc2)o1)N1CCOCC1

(A)
["-1.93 (inactive)", "1.24 (inactive)", "-0.483 (inactive)"]

Would you be so kind as to report B-score for each listed record?
1. C/C=C(\C)C(=O)NCCN1C2=NC[C@H](Cc3ccc(O)cc3)N2C[C@@H]1Cc1ccc(OC)cc1
2. O=C(C1=C[C@H](c2coc3ccccc3c2=O)C[C@H](OCc2ccc(CO)cc2)O1)N1CCN(Cc2ccccc2)CC1
3. CCOc1ccc(C(=O)NC2CCN(C(=O)Nc3ccccc3OC)CC2)cc1

(A)
-0.0234 (inactive)
-1.94 (inactive)
1.41 (inactive)
